B1: library; numbered along this chain (parent)
chain: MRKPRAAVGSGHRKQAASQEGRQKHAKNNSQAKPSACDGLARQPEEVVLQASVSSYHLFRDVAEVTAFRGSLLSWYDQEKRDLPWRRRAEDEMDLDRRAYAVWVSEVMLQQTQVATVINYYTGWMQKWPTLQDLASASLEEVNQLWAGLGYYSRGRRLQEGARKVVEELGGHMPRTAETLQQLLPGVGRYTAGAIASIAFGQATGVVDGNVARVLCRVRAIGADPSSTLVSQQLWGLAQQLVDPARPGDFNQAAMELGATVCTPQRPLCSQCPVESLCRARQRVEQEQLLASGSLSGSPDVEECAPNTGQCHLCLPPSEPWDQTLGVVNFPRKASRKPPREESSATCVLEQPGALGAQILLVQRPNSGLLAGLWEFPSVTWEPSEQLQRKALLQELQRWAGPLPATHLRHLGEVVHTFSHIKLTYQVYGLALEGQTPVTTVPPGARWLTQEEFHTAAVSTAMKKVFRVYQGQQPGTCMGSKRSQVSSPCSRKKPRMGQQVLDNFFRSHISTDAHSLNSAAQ

variants of: B1; test: 8OG:A repair function score (normalized; synonymous = 0, nonsense = -1) (normalized log-likelihood score); higher = more repair activity (WT-like); conditions: with 8OG:A DNA repair reporter (GFP) in HEK-293 MUTYH KO cells;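 note: cells sorted at 72 h after reporter transfection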
Output: class label from 8OG:A repair function score. Mapping: LOW: < -0.3; MID: ≥ -0.3 and < -0.06; HIGH: ≥ -0.06

Which class does T116G fall in?
MID

Which class does G186N fall in?
LOW

Which class does L49F fall in?
MID

Which class does A196S fall in?
HIGH

Which class does Q358R fall in?
HIGH

---
Which class does E141R fall in?
LOW

Which class does S335M fall in?
HIGH

Which class does V214C fall in?
LOW

Which class does A63N fall in?
MID

Which class does L430W fall in?
HIGH

Which class does S490A fall in?
HIGH

Which class does S343Q fall in?
MID

Which class does R467N fall in?
MID

Which class does L184G fall in?
LOW
